Assignment: determine reported growth for the given compounds.
Test system: RXF 393 renal
Assay: NCI-60 one-dose screen, 48 h (100 = growth as untreated, 0 = no growth, -100 = all killed)
Conditions: 10 µM unless noted
About 83,000 compounds went through this panel and 20% of them were active in at least one assay; those are over-represented in the sample as a whole.
Write the answer as a number in %, unit excluded.

The compound listed as O=C(Nc1cccc(NC(=O)C2CCCCC2)c1)c1ccccn1 shows growth equal to 125

The compound listed as O=C1NC(=C(Cl)Cl)/C(=N/S(=O)(=O)NCCc2c[nH]c3ccccc23)N1 shows growth equal to 81.9

The compound listed as O=C(CCl)Nc1ccc2c(Nc3cc(O)ccc3Cl)ncnc2c1 shows growth equal to -88.6

The compound listed as CCCCn1sc(=O)n(Cc2ccc(CNC(=O)OCc3ccc4c(Cl)cc(Cl)c(O)c4n3)cc2)c1=O shows growth equal to 74.3

The compound listed as CCOC(=O)NN1CC(O)=C(c2nc(-c3ccc(Br)cc3)cs2)C1=N shows growth equal to 82.9

The compound listed as Cc1cc(N2CCN(C)CC2)nc(NCc2cc(Nc3ccnc4cc(Cl)ccc34)ccc2F)n1 shows growth equal to -70.9

The compound listed as Cn1ncc2ccc(-c3nc(-c4ccccc4)[nH]c3-c3n[nH]c(=O)n3C3CC3)cc21 shows growth equal to 106

The compound listed as C=C1C(=O)O[C@H]2[C@H]1CC/C(COC(=O)/C=C\C(=O)NCc1ccc(Cn3c(=O)sn(-c4ccccc4)c3=O)cc1)=C\CC[C@@]1(C)O[C@@H]21 shows growth equal to 84.3

The compound listed as COc1cc(-c2cc(-c3ccc(Nc4ncnc5cc(Cl)ccc45)cc3)nc(N3CCN(C)CC3)n2)cc(OC)c1OC shows growth equal to -1.57

---

Tested on: SF-295 CNS
Test: NCI-60 one-dose screen, 48 h (100 = growth as untreated, 0 = no growth, -100 = all killed)
Conditions: 10 µM unless noted
The panel holds about 83,000 compounds, 20% with a hit somewhere; the sample as a whole holds those more often. Activity calls are given as the source filed them. How the source made its calls: active means growth percent below 10; inactive means the rest.
Observable: growth

Measured growth (SF-295 CNS), entry COc1ccc2c(c1)c(-c1nonc1-c1cn(C)c3ccc(OC)cc13)cn2C : 30.4% (inactive)

Measured growth (SF-295 CNS), entry C=CCCC(=O)N1C=CC(=O)[C@H](O)[C@@H]1/C=C/c1ccccc1 : 33.4% [100 µM] (inactive)

Measured growth (SF-295 CNS), entry c1ccc(CNc2ccc3nc(CCC4CCCCC4)[nH]c3c2)cc1 : 81% (inactive)

Measured growth (SF-295 CNS), entry Cc1[nH]c(C(=O)Nc2cccc(OC3CCNCC3)c2)c(Cl)c1Cl : 58.7% (inactive)

Measured growth (SF-295 CNS), entry CCOc1ccc(NC(=O)c2cc(OC)c(OC)c(OC)c2)cc1 : 26.2% (inactive)

Measured growth (SF-295 CNS), entry CCCCCCOC(=O)CC1=C(C)/C(=C/c2[nH]c(-c3ccc[nH]3)cc2OC)N=C1C : -60.4% (active)

Measured growth (SF-295 CNS), entry CCn1cc(C2=C(c3cn(C)c4ncccc34)C(=O)NC2=O)c2cccnc21 : 61.4% (inactive)

Measured growth (SF-295 CNS), entry Cc1ccc(/C=C/C(=O)c2ccc(NC(=O)CSc3nc4c([nH]3)c(=O)n(C)c(=O)n4C)cc2)c(C)c1 : 47.6% (inactive)

Measured growth (SF-295 CNS), entry CC(C)[C@@]12C[C@@H](OC(=O)COC(=O)c3ccccc3)[C@@](C)(O1)[C@@H]1CC[C@@H](C)[C@H]1[C@@H]2OC(=O)/C=C/c1ccccc1 : 94.5% (inactive)

---

Tested on: K-562 leukemia
Assay: NCI-60 one-dose screen, 48 h (100 = growth as untreated, 0 = no growth, -100 = all killed)
Conditions: 10 µM unless noted
About 83,000 compounds went through this panel and 20% of them were active in at least one assay; those are over-represented in the sample as a whole.
Labelling: growth reported below 20% becomes y; at or above becomes n.

Problem: Answer whether the compound Cn1cc(-c2csc(-c3cn(C(=O)OC(C)(C)C)c4ccccc34)n2)c2ccnc(Cl)c21 has growth strictly less than 20%
Solution: n

Problem: Answer whether the compound COc1cccc(OC)c1Oc1c(-c2nc3ccccc3s2)c(C)nn1-c1ccccc1 has growth strictly less than 20%
Solution: n

Problem: Answer whether the compound COc1cccc(Nc2ccnc3[nH]c4ccc([N+](=O)[O-])cc4c23)c1 has growth strictly less than 20%
Solution: y

Problem: Answer whether the compound CCN(CCO)CC(C)Nc1ccc([N+](=O)[O-])c2sc3ccccc3c(=O)c12 (stereo not given) has growth strictly less than 20%
Solution: y

Problem: Answer whether the compound CCCCn1sc(=O)n(Cc2ccc(CNC(=O)OCc3ccc4c(Cl)cc(Cl)c(O)c4n3)cc2)c1=O has growth strictly less than 20%
Solution: n

Problem: Answer whether the compound COC(=O)C1=Nc2ccc(F)cc2/C1=C\c1sc(Nc2ccc(O)cc2)nc1O has growth strictly less than 20%
Solution: n

Problem: Answer whether the compound Cc1c2cc[nH]c(=O)c2c(C)c2c1[nH]c1ccc(OC(=O)c3ccccc3)cc12 has growth strictly less than 20%
Solution: n

Problem: Answer whether the compound C#CCn1cnc2c(Nc3cccc(NC(=O)CCl)c3)ncnc21 has growth strictly less than 20%
Solution: y

Problem: Answer whether the compound CC(C)(C)C(=O)/C=C/c1ccc([N+](=O)[O-])cc1 has growth strictly less than 20%
Solution: y

Problem: Answer whether the compound CCCCCCCCn1ccc2cc(NC(=O)Cn3cc(CN4CCC(C)CC4)nn3)ccc21 has growth strictly less than 20%
Solution: y

---

System: OVCAR-8 ovarian
Test: NCI-60 one-dose screen, 48 h (100 = growth as untreated, 0 = no growth, -100 = all killed)
Details: 10 µM unless noted
The panel holds about 83,000 compounds, 20% with a hit somewhere; the sample as a whole holds those more often.
Observable: growth (%)
Write the answer as a number in %, unit excluded.

The molecule listed as CC1O[C@@H]2C[C@@](O)([C@H]1O)n1c3ccccc3c3c4c(c5c6ccccc6n2c5c31)C(=O)NC4=O (some centres undefined) shows growth equal to 63.3

The molecule listed as O=C(CSc1nnc2sc(Nc3cccc(Cl)c3)nn12)c1ccc(F)cc1 shows growth equal to 102

The molecule listed as CC/C=C\C/C=C/C=C1/C(=O)C=C[C@@H]1C/C=C\CCCC(=O)OC shows growth equal to 13.2

The molecule listed as CN1CCN(Cc2cc(NC(=O)c3cccc(C#Cc4cccc5[nH]nc(N)c45)c3)cc(C(F)(F)F)c2)CC1 shows growth equal to 41

The molecule listed as COc1cccc(/C=C/C(=O)c2cc3c(N)c(C(=O)Nc4cccc(Cl)c4C)sc3nc2C)c1 shows growth equal to -33.4

The molecule listed as Cn1cc(-c2ccc3cc(-c4ccc(CC(=O)Nc5cc(C(C)(C)C)on5)cc4)cnc3c2)cn1 shows growth equal to 20.4

The molecule listed as O=C(Cn1cc(CN2C(=O)c3ccccc3S2(=O)=O)nn1)Nc1cccc(Cl)c1 shows growth equal to 113

The molecule listed as COc1cc(/C=C2\C(=O)N(c3c(Cl)cccc3Cl)c3ccccc32)cc(OC)c1OCCCCCCn1c2ccccc2c(=O)c2ccccc21 shows growth equal to 98.3

The molecule listed as Cc1ccc(-c2csc(NC(=O)N3CCN(c4cc5c(cc4F)c(=O)c(C(=O)O)cn5C4CC4)CC3)n2)cc1 shows growth equal to 7.72

---

System: K-562 leukemia
Assay: NCI-60 one-dose screen, 48 h (100 = growth as untreated, 0 = no growth, -100 = all killed)
Conditions: 10 µM unless noted
About 83,000 compounds went through this panel and 20% of them were active in at least one assay; those are over-represented in the sample as a whole.
Each record gets a class by growth: lower: < 10%; middle: ≥ 10% and < 30%; upper: ≥ 30%

Problem: Which category fits this record: Nc1nc(C(=O)N/N=C/c2ccc(N3CCOCC3)cc2)nn1-c1ccc(S(N)(=O)=O)cc1
Solution: upper

Problem: Which category fits this record: Cc1ccccc1CNc1c2ccccc2nc2ccccc12
Solution: lower

Problem: Which category fits this record: CCCCSCC(=O)c1ccccc1
Solution: upper

Problem: Which category fits this record: O=C1OCC2=C1C(c1cccc(C(F)(F)F)c1)c1cc3c(cc1N2CCO)OCO3 (stereo not given)
Solution: lower

Problem: Which category fits this record: Cc1[nH]c(C(=O)Nc2cccc(OC3CCNCC3)c2)c(Cl)c1Cl
Solution: lower

Problem: Which category fits this record: COc1ccc2cc(Cn3cc[n+](Cc4ccc5ccccc5c4)c3)ccc2c1
Solution: middle

Problem: Which category fits this record: Nc1n[nH]c2ccc([C@@H]3Nc4cc5[nH]ncc5cc4[C@H]4C5CCC(C5)[C@@H]34)cc12 (stereo not given in full)
Solution: middle

Problem: Which category fits this record: N#Cc1nc(-c2ccc(F)cc2)oc1S(=O)(=O)N1CCN(c2ccc(F)cc2)CC1
Solution: middle

Problem: Which category fits this record: COc1ccccc1-n1c(-c2cc(O)ccc2C)cn2c3c(=O)[nH]c(=O)n(C)c3nc12
Solution: middle

Problem: Which category fits this record: CCN(CC)S(=O)(=O)c1ccc(S(=O)(=O)N2CCC[C@@H](C(=O)N3CCN(C(=O)OC(C)(C)C)CC3)C2)cc1
Solution: upper
